# tested_target: Leukotriene B4 receptor (Homo sapiens, UniProt Q9NPC1+Q15722)
# assay_notes: Inhibition of LTB4 receptor induced chemotaxis of isolated human neutrophils
# Type: functional
Threshold check on IC50: strictly below 3 µM is true (1); on or above 3 µM is false (0).

Task: API: query returns whether the molecule falls strictly under 3 µM in IC50. Query: CC(C)(C(=O)O)c1ccc2c(c1)OC[C@H](Cc1ccccc1)C2
Result: false (0)

* * *

# tested_target: Leukotriene B4 receptor (Homo sapiens, UniProt Q9NPC1+Q15722)
# assay_notes: Inhibition of LTB4 receptor induced chemotaxis of isolated human neutrophils
# Format: functional
metric: IC50 (µM)
Write the number in µM without appending the unit.

Example entries and their recorded answers appear below.
> print(dat)
                                   molecule   val
1  CCC(CC)(C(=O)O)c1ccc2c(c1)OC[C@H](Cc1ccccc1)[C@H]2O  0.17
2  O=C(O)C1(c2ccc3c(c2)OC[C@H](C(c2ccccc2)c2ccccc2)[C@H]3O)CCCC1    10
3  O=C(O)C1(c2ccc3c(c2)OC[C@H](Cc2ccccc2)[C@H]3O)CCC1    14
4  O=C(O)C1(c2ccc3c(c2)OC[C@H](Cc2ccccc2)[C@H]3O)CCCC1 (stereo in doubt)   1.1
5  COc1ccc(C[C@H]2COc3cc(C(C)C(=O)O)ccc3[C@@H]2O)cc1 (some centres undefined)  18.5
6  O=C(O)C1(c2ccc3c(c2)OC[C@H](Sc2ccccc2)[C@H]3O)CCCC1   0.5

Moving on to the next molecule.
Task: Answer with reported IC50 of O[C@H]1c2ccc(C3(C4N=NN=N4)CCCC3)cc2OC[C@@H]1C(c1ccccc1)C1CCCCC1 (some centres undefined)
Result: 1.5

* * *

# tested_target: Leukotriene B4 receptor (Cavia porcellus)
# assay_notes: Inhibition of leukotriene B4 (LTB4) binding to guinea pig spleen
Below: a set of entries, each annotated with reported IC50.
Write the number in nM without appending the unit.

Example entries and their recorded answers appear below.
> print(dat)
                                   compound                             tested.target  metric  units.symbol    val
1  COc1cccc(C[C@H]2COc3cc(C(C)C(=O)O)ccc3[C@@H]2O)c1 (stereo partly drawn)  Leukotriene B4 receptor (Cavia porcellus)    IC50            nM  53000
2  CC(C)(C(=O)O)c1ccc2c(c1)OC[C@H](Cc1cccc(F)c1)[C@H]2O  Leukotriene B4 receptor (Cavia porcellus)    IC50            nM   6000
3  O=C(O)C1(c2ccc3c(c2)OC[C@H](Sc2ccccc2)[C@H]3O)CCCC1  Leukotriene B4 receptor (Cavia porcellus)    IC50            nM    560
4  O=C(O)C1(c2ccc3c(c2)OC[C@H](Cc2ccccc2)[C@H]3O)CCCCC1 (stereo in doubt; 16)  Leukotriene B4 receptor (Cavia porcellus)    IC50            nM    250
5  O=C(O)C1(c2ccc3c(c2)OC[C@H](Cc2ccc(C(F)(F)F)cc2)[C@H]3O)CCCC1  Leukotriene B4 receptor (Cavia porcellus)    IC50            nM  12000

Task: Under Leukotriene B4 receptor (Cavia porcellus): report IC50 of O=C(O)C1(c2ccc3c(c2)OC[C@H](Cc2ccccc2)[C@H]3O)CCCC1 (stereo in doubt; 12) .
Result: 420

Task: Under Leukotriene B4 receptor (Cavia porcellus): report IC50 of CC(C)(C(=O)O)c1ccc2c(c1)OC[C@H](CC1CCCCC1)[C@H]2O .
Result: 34000

Task: Under Leukotriene B4 receptor (Cavia porcellus): report IC50 of O=C(O)C1(c2ccc3c(c2)OC[C@H](Cc2ccccc2)[C@H]3O)CCCC1 (stereo in doubt; 13) .
Result: 290

Task: Under Leukotriene B4 receptor (Cavia porcellus): report IC50 of CC(C)c1ccc2c(c1)OC[C@H](Cc1ccccc1)[C@H]2O .
Result: 100000

Task: Under Leukotriene B4 receptor (Cavia porcellus): report IC50 of O=C(O)C1(c2ccc3c(c2)OC[C@H](Cc2cccs2)[C@H]3O)CCCC1 .
Result: 650

Task: Under Leukotriene B4 receptor (Cavia porcellus): report IC50 of CC(C)(C(=O)O)c1ccc2c(c1)OC[C@H](Cc1ccccc1)[C@H]2O (stereo in doubt; 7) .
Result: 2300

Task: Under Leukotriene B4 receptor (Cavia porcellus): report IC50 of CC(C)(C(=O)O)c1ccc2c(c1)OC[C@H](Cc1ccc(F)cc1F)[C@H]2O .
Result: 8000

Task: Under Leukotriene B4 receptor (Cavia porcellus): report IC50 of O=C(O)C1(c2ccc3c(c2)OC[C@H](Cc2ccccc2)[C@H]3O)CCCCC1 (stereo in doubt; 14) .
Result: 200

* * *

# tested_target: Leukotriene B4 receptor (Homo sapiens, UniProt Q9NPC1+Q15722)
# assay_notes: Inhibition of LTB4 receptor induced chemotaxis of isolated human neutrophils
# Assay type: functional
Below: a set of entries, each annotated with reported IC50.
Write the number in µM without appending the unit.

Example entries and their recorded answers appear below.
> print(dat)
                                   compound                             tested.target  units.symbol    val
1  CC(C)(C(=O)N1CCCC1)c1ccc2c(c1)OC[C@H](Cc1ccccc1)[C@H]2O  Leukotriene B4 receptor (Homo sapiens, UniProt Q9NPC1+Q15722)            µM    1.7
2  CC(C)(C(=O)O)c1ccc2c(c1)OC[C@H](Cc1ccccc1)[C@H]2O (stereo in doubt; 8)  Leukotriene B4 receptor (Homo sapiens, UniProt Q9NPC1+Q15722)            µM    3.4
3  CC(C)(C(=O)O)c1ccc2c(c1)OC[C@H](Cc1ccc(Cl)cc1)[C@H]2O  Leukotriene B4 receptor (Homo sapiens, UniProt Q9NPC1+Q15722)            µM    5.4
4  CC(C)(C(=O)O)c1ccc2c(c1)OC[C@H](Cc1ccc(F)cc1F)[C@H]2O  Leukotriene B4 receptor (Homo sapiens, UniProt Q9NPC1+Q15722)            µM    6.2
5  O=C(O)C1(c2ccc3c(c2)OC[C@H](Cc2ccccc2)[C@H]3O)CCCC1 (stereo in doubt; 12)  Leukotriene B4 receptor (Homo sapiens, UniProt Q9NPC1+Q15722)            µM  0.078

Task: Answer with reported IC50 of CC(C)(C(=O)O)c1ccc2c(c1)OC[C@H](Cc1ccccc1)[C@H]2O (stereo in doubt)
Result: 12.5

Task: Answer with reported IC50 of CC(C)(C(=O)O)c1ccc2c(c1)OC[C@H](Cc1ccccc1)[C@H]2O (stereo in doubt; 7)
Result: 5.7

Task: Answer with reported IC50 of O=C(O)C1(c2ccc3c(c2)OC[C@H](CCCc2ccccc2)[C@H]3O)CCCC1
Result: 4.2

Task: Answer with reported IC50 of O=C(O)C1(c2ccc3c(c2)OC[C@H](CCc2ccccc2)[C@H]3O)CCCC1
Result: 0.3
